Molecular target: UniProt P39900
Sequence (P39900 106-280 limits assumed): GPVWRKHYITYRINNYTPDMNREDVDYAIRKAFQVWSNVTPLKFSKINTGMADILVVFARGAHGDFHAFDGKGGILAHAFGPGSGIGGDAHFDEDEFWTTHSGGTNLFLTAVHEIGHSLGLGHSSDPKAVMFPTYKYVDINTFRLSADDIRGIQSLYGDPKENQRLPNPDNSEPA
Assay: In vitro fluorescence assay of MMP-12 activity
Conditions: recombinant human MMP-12
pIC50: −log10 of the molar value.
Mark 1 for reported pIC50 of 7 or greater; mark 0 for anything smaller.

Incoming: Could you please find out whether Cc1c(C(=O)Nc2ccc(-c3ccc(S(=O)(=O)N[C@H](C(=O)O)C(C)C)cc3)cc2)oc2cccc(C#N)c12 has pIC50 that meets 7 or exceeds it?
Outgoing: 1

New cases:
Incoming: Assess whether reported pIC50 for COc1c(Cl)ccc2oc(C(=O)Nc3ccc(-c4ccc(S(=O)(=O)N[C@H](C(=O)O)C(C)C)cc4)cc3)c(C)c12 sits at 7 or higher.
Outgoing: 1

Incoming: Evaluate COc1cccc2oc(C(=O)Nc3ccc(-c4ccc(S(=O)(=O)N[C@H](C(=O)O)C(C)C)cc4)cc3)c(C)c12 : pIC50 at minimum 7?
Outgoing: 1

Incoming: Assess whether reported pIC50 for Cc1c(C(=O)Nc2ccc(-c3ccc(S(=O)(=O)N[C@H](C(=O)O)C(C)C)cc3)cc2)oc2cccc(NC(=O)C3CC3)c12 sits at 7 or higher.
Outgoing: 0

* * *

Would you mind telling me the reported log10 IC50 of each entry?
Molecular target: MMP-2 (Homo sapiens, UniProt P08253)
Construct: purchased Oncogene Research Products (Calbiochem) PF023
Sequence (P08253 110-660): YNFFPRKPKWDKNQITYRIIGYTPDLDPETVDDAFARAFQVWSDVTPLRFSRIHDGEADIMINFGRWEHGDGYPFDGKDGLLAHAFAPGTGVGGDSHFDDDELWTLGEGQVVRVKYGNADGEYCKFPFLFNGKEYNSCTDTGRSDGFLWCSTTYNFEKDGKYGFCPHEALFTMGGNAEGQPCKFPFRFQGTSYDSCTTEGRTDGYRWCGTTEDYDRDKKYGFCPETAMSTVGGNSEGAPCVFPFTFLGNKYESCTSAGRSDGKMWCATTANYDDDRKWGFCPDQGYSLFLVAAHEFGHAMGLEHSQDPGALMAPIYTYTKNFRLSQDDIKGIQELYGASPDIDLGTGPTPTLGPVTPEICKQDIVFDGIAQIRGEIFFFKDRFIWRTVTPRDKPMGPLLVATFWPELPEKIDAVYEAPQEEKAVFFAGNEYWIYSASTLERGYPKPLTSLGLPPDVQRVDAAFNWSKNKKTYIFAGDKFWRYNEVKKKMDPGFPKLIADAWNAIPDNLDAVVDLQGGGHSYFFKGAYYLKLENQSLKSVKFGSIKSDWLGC
Experiment: In-vitro fluorescence assay of MMP-2 activity
Format: biochemical
Settings: recombinant human MMP-2; read-out: MMP-2 IC50
Response schema: value (number) is log10 of IC50 in units of nM.

Consider the reported log10 IC50 for these compounds:
Record Cc1c(C(=O)Nc2ccc(-c3ccc(S(=O)(=O)N[C@H](C(=O)O)C(C)C)cc3)cc2)oc2cccc(OCc3ccncc3)c12 , field log10 IC50: 3.60

For this compound ( COCC#Cc1cccc2oc(C(=O)Nc3ccc(-c4ccc(S(=O)(=O)N[C@H](C(=O)O)C(C)C)cc4)cc3)c(C)c12 ), measured log10 IC50 is 3.29

Reported log10 IC50 ( Cc1c(C(=O)Nc2ccc(-c3ccc(S(=O)(=O)N[C@H](C(=O)O)C(C)C)cc3)cc2)oc2cccc(C#CCC(C)C)c12 ) = 3.82

Go through the list and state log10 IC50 for each entry.
1. COCc1cccc2oc(C(=O)Nc3ccc(-c4ccc(S(=O)(=O)N[C@H](C(=O)O)C(C)C)cc4)cc3)c(C)c12
2. Cc1c(C(=O)Nc2ccc(-c3ccc(S(=O)(=O)N[C@H](C(=O)O)C(C)C)cc3)cc2)oc2cccc(C#CCN(C)C)c12
3. CC(C)Oc1cccc2oc(C(=O)Nc3ccc(-c4ccc(S(=O)(=O)N[C@H](C(=O)O)C(C)C)cc4)cc3)cc12
4. Cc1c(C(=O)Nc2ccc(-c3ccc(S(=O)(=O)N[C@H](C(=O)O)C(C)C)cc3)cc2)oc2cccc(N3CCCC3)c12

Outgoing:
1: 3.38; 2: 3.16; 3: 1.89; 4: 3.70

Batch: log10 IC50 for all items listed.
1. Cc1c(C(=O)Nc2ccc(-c3ccc(S(=O)(=O)N[C@H](C(=O)O)C(C)C)cc3)cc2)oc2ccc(Cl)c(OC(C)C)c12
2. Cc1c(C(=O)Nc2ccc(-c3ccc(S(=O)(=O)N[C@H](C(=O)O)C(C)C)cc3)cc2)oc2cccc(-c3ccccc3)c12
3. Cc1c(C(=O)Nc2ccc(-c3ccc(S(=O)(=O)N[C@H](C(=O)O)C(C)C)cc3)cc2)oc2cccc(C(O)CO)c12 (stereo partly shown)
4. CCc1cccc2oc(C(=O)Nc3ccc(-c4ccc(S(=O)(=O)N[C@H](C(=O)O)C(C)C)cc4)cc3)c(C)c12

Outgoing:
[3.48, 3.56, 3.46, 3.15]

Answer for every listed entry: what is its log10 IC50? The entries follow.
1. CC(C)[C@@H](NS(=O)(=O)c1ccc(-c2ccc(OCc3cc4ccccc4o3)cc2)cc1)C(=O)O
2. Cc1c(C(=O)Nc2ccc(-c3ccc(S(=O)(=O)N[C@@H](C(=O)O)C(C)C)cc3)cc2)oc2ccccc12

Outgoing:
0.40
1.97

* * *

Molecular target: MMP-2 (Homo sapiens, UniProt P08253)
Construct: purchased Oncogene Research Products (Calbiochem) PF023
Assay: In-vitro fluorescence assay of MMP-2 activity
Type: biochemical
Settings: recombinant human MMP-2; read-out: MMP-2 IC50
experimental-endpoint: IC50 (µM)
Answers are plain numbers, in µM.

Measured IC50 of Cc1c(C(=O)Nc2ccc(-c3ccc(S(=O)(=O)N[C@H](C(=O)O)C(C)C)cc3)cc2)oc2cccc(N)c12 : 0.323

I have 4 molecules here; please give me IC50 for each one.
1. CC(C)C[C@H](NS(=O)(=O)c1ccc(-c2ccc(NC(=O)c3cc4ccccc4o3)cc2)cc1)C(=O)O
2. CN(CC(=O)O)S(=O)(=O)c1ccc(-c2ccc(NC(=O)c3cc4ccccc4o3)cc2)cc1
3. Cc1cc(-c2ccc(S(=O)(=O)N[C@@H](C(=O)O)C(C)C)cc2)cc(C)c1OC(=O)c1oc2ccccc2c1C
4. CCc1ccc2oc(C(=O)Nc3ccc(-c4ccc(S(=O)(=O)N[C@H](C(=O)O)C(C)C)cc4)cc3)c(C)c2c1OCc1ccccc1

Outgoing:
1: 0.0084; 2: 0.035; 3: 0.346; 4: 4.34

State recorded IC50 for all listed molecules.
1. CC(C)[C@@H](NS(=O)(=O)c1ccc(-c2ccc(NC(=O)c3ccco3)cc2)cc1)C(=O)O
2. COC(=O)C(C)(C)Oc1cccc2oc(C(=O)Nc3ccc(-c4ccc(S(=O)(=O)N[C@H](C(=O)O)C(C)C)cc4)cc3)c(C)c12

Outgoing:
0.0069
6.2

* * *

For each record, write down the corresponding pIC50.
Biological target: MMP-13 (Homo sapiens, UniProt P45452)
Construct: made in house
Assay: In-vitro fluorescence assay of MMP-13 activity
Assay type: biochemical
Details: recombinant human catalytic domain of MMP-13; read-out: MMP-13 IC50
Numbers only, as −log10 of the molar value.

Below, 3 compounds whose answers are already recorded.
# compound Cc1nn(C)c2sc(C(=O)Nc3ccc(-c4ccc(S(=O)(=O)N[C@H](C(=O)O)C(C)C)cc4)cc3)cc12 ; its pIC50 = 7.37

// pIC50 value for Cc1c(C(=O)Nc2ccc(-c3ccc(S(=O)(=O)N[C@H](C(=O)O)C(C)C)cc3)cc2)oc2cccc(C#N)c12 : 8.43

Lab book: pIC50 of COc1c(Br)ccc2oc(C(=O)Nc3ccc(-c4ccc(S(=O)(=O)NC(C(=O)O)C(C)C)cc4)cc3)c(C)c12 (stereo in doubt) noted as 8.47

Turning now to a further record.
Value of pIC50 reported for the compound Cc1cc(-c2ccc(S(=O)(=O)N[C@@H](C(=O)O)C(C)C)cc2)cc(C)c1OC(=O)c1oc2ccccc2c1C is 7.85

* * *

Task for the reader: assign each of the following molecules its reported IC50.
Target: MMP-2 (Homo sapiens, UniProt P08253)
Construct: purchased Oncogene Research Products (Calbiochem) PF023
Assay: In-vitro fluorescence assay of MMP-2 activity
Assay type: biochemical
Details: recombinant human MMP-2; read-out: MMP-2 IC50
Please append the unit to your numeric answer.

Worked cases, IC50 given:
The molecule identified as Cc1c(C(=O)Nc2ccc(-c3ccc(S(=O)(=O)N(C)[C@H](C(=O)O)C(C)C)cc3)cc2)oc2cccc(C(O)CO)c12 (stereo partly shown) registered its IC50 at 13.2 µM

The molecule listed as CC(=O)c1ccc2oc(C(=O)Nc3ccc(-c4ccc(S(=O)(=O)N[C@H](C(=O)O)C(C)C)cc4)cc3)c(C)c2c1O has a reported IC50 of 0.063 µM

Record Cc1c(C(=O)Nc2ccc(-c3ccc(S(=O)(=O)N[C@H](C(=O)O)C(C)O)cc3)nc2)oc2cccc(NS(C)(=O)=O)c12 (stereo partly shown) . Reported IC50: 8.89 µM

Then this molecule:
Consider CCS(=O)(=O)Nc1cccc2oc(C(=O)Nc3ccc(-c4ccc(S(=O)(=O)N[C@H](C(=O)O)C(C)C)cc4)cc3)c(C)c12 . Its measured IC50 is 1.65 µM

Where do the numbers come from? From patent US7420001B2.
